Molecular target: soluble HLA-DR1 (HLA-DR alpha truncated after Asn192 with a C-terminal nine amino acid HA epitope tail; HLA-DR1 beta truncated after Lys198), made in Baculovirus-infected insect cells (human)
Test: release ELISA as Table 36 (biotin-hMBP(90-102) left on tethered HLA-DR1); AE peptide 1 uM, without unlabeled hMBP(90-102)
Non-standard residues stand in square brackets, D forms with d. Hyp = O=C(O)[C@@H]1C[C@@H](O)CN1
In this section we review reported Relative Release (fraction of positive control o.d.) values for a set of binders.
REPORTED_ENDPOINT: Relative Release (fraction of positive control o.d.)

- BINDER: "YRMKLPKSAK [AE108]"
  RESULT_VALUE: 0.52
- BINDER: "Ac-LRMKYPK-NH2 [AE235]"
  RESULT_VALUE: 1.05
- BINDER: "LRMKLPK (head-to-tail cyclization: the amino terminal amino group is coupled through an amide linkage to the carboxyl terminal group) [AE381]"
  RESULT_VALUE: 0.64
- BINDER: "Ac-YRMKL[Hyp]KSAK-NH2 (SMILES CSCC[C@H](NC(=O)[C@H](CCCNC(=N)N)NC(=O)[C@H](Cc1ccc(O)cc1)NC(C)=O)C(=O)N[C@@H](CCCCN)C(=O)N[C@@H](CC(C)C)C(=O)N1C[C@H](O)C[C@H]1C(=O)N[C@@H](CCCCN)C(=O)N[C@@H](CO)C(=O)N[C@@H](C)C(=O)N[C@@H](CCCCN)C(N)=O) [AE143]"
  RESULT_VALUE: 0.51
- BINDER: "Ac-LRLKLPK-NH2 [AE206]"
  RESULT_VALUE: 0.58
